Target: UniProtKB Q14191
Experiment: WRN unwinding assay (FORKF DNA, fluorescence)
Format: biochemical
Conditions: Table 14
# maps each entry to its IC50
attribute-measured: IC50

compound=CCC(=O)N(C(=O)Cn1c(CC)c(N2CCN(S(N)(=O)=O)CC2)c(=O)n2nc(C3=CCOCC3)nc12)c1ccc(C(F)(F)F)cc1Cl attribute_measured=IC50 recorded_result="100 to 1000 nM"
compound=CCc1c(N2CCN(C(=O)CNC(=O)c3ccncc3O)CC2)c(=O)n2nc(C3=CCOCC3)nc2n1CC(=O)Nc1ccc(C(F)(F)F)cc1Cl attribute_measured=IC50 recorded_result="< 100 nM"
compound=CCc1c(N2CCN(C(=O)c3sc4cccnc4c3N)CC2)c(=O)n2nc(C3=CCOCC3)nc2n1CC(=O)Nc1ccc(C(F)(F)F)cc1Cl attribute_measured=IC50 recorded_result="100 to 1000 nM"
compound=CCc1c(N2CCN(C(=O)CNC(=O)c3ccccc3F)CC2)c(=O)n2nc(N3CC(OC)C3)nc2n1CC(=O)Nc1ccc(C(F)(F)F)cc1Cl attribute_measured=IC50 recorded_result="100 to 1000 nM"
compound=CCc1c(N2CCN(C(=O)C(=O)Nc3ccno3)CC2)c(=O)n2nc(C3=CCOCC3)nc2n1CC(=O)Nc1ccc(C(F)(F)F)cc1Cl attribute_measured=IC50 recorded_result="< 100 nM"
compound=CCc1c(N2CCN(C(=O)CNC(=O)c3ncc[nH]3)CC2)c(=O)n2nc(C3=CCOCC3)nc2n1CC(=O)Nc1ccc(C(F)(F)F)cc1Cl attribute_measured=IC50 recorded_result="< 100 nM"
compound=CCc1c(N2CCN(C(=O)CNC)CC2)c(=O)n2nc(C3=CCOCC3)nc2n1CC(=O)Nc1ccc(C(F)(F)F)cc1Cl attribute_measured=IC50 recorded_result="< 100 nM"
compound=CCc1c(N2CCN(C(=O)CNC(=O)N3CCc4ccccc43)CC2)c(=O)n2nc(C3=CCOCC3)nc2n1CC(=O)Nc1ccc(C(F)(F)F)cc1Cl attribute_measured=IC50 recorded_result="< 100 nM"
compound=CCc1c(N2CCN(C(=O)CNC(=O)c3ccc(F)c(F)c3)CC2)c(=O)n2nc(C3=CCOCC3)nc2n1CC(=O)Nc1ccc(C(F)(F)F)cc1Cl attribute_measured=IC50 recorded_result="< 100 nM"
compound=CCNS(=O)(=O)N1CCN(c2c(CC)n(CC(=O)Nc3ccc(C(F)(F)F)cc3Cl)c3nc(C4=CCOCC4)nn3c2=O)CC1 attribute_measured=IC50 recorded_result="100 to 1000 nM"
compound=CCc1c(N2CCN(C(=O)c3cc4c(OC)ccnc4[nH]3)CC2)c(=O)n2nc(C3=CCOCC3)nc2n1CC(=O)Nc1ccc(C(F)(F)F)cc1Cl attribute_measured=IC50 recorded_result="100 to 1000 nM"
compound=CCc1c(N2CCN(C(=O)c3cc4ccsc4[nH]c3=O)CC2)c(=O)n2nc(C3=CCOCC3)nc2n1CC(=O)Nc1ccc(C(F)(F)F)cc1Cl attribute_measured=IC50 recorded_result="< 100 nM"
compound=CCc1c(N2CCN(S(N)(=O)=O)CC2)c(=O)n2nc(C3=CCOCC3)nc2n1CC(=O)Nc1ccc(C(F)(F)F)cc1Cl attribute_measured=IC50 recorded_result="100 to 1000 nM"
compound=CCc1c(N2CCN(C(=O)C(=O)NCC(F)(F)F)CC2)c(=O)n2nc(C3=CCOCC3)nc2n1CC(=O)Nc1ccc(C(F)(F)F)cc1Cl attribute_measured=IC50 recorded_result="> 1000 nM"
compound=CCc1c(N2CCN(C(=O)CNC(=O)c3ccccc3F)CC2)c(=O)n2nc(C3=CCOCC3)nc2n1CC(=O)Nc1nnc(C2CC2)s1 attribute_measured=IC50 recorded_result="> 1000 nM"
compound=O=C(Cn1c(O)c(N2CCN(C(=O)CNC(=O)c3ccccc3)CC2)c(=O)n2nc(C3=CCOCC3)nc12)Nc1ccc(C(F)(F)F)cc1Cl attribute_measured=IC50 recorded_result="100 to 1000 nM"
compound=CCc1c(N2CCN(C(=O)CNC(=O)c3cc(NC)c(F)cc3F)CC2)c(=O)n2nc(C3=CCOCC3)nc2n1CC(=O)Nc1ccc(C(F)(F)F)cc1F attribute_measured=IC50 recorded_result="< 100 nM"
compound="CCc1c(N2CCN(C(=O)C(C)O)CC2)c(=O)n2nc(C3=CCOCC3)nc2n1CC(=O)Nc1ccc(C(F)(F)F)cc1Cl (stereo not drawn)" attribute_measured=IC50 recorded_result="100 to 1000 nM"
compound=CCc1c(N2CCN(C(=O)CNC(=O)c3cc(N)ccc3F)CC2)c(=O)n2nc(C3=CCOCC3)nc2n1CC(=O)Nc1ccc(C(F)(F)F)cc1Cl attribute_measured=IC50 recorded_result="< 100 nM"
compound=CCc1c(N2CCN(C(=O)c3cc4cnccc4[nH]3)CC2)c(=O)n2nc(C3=CCOCC3)nc2n1CC(=O)Nc1ccc(C(F)(F)F)cc1Cl attribute_measured=IC50 recorded_result="100 to 1000 nM"
compound=CCc1c(N2CCN(C(=O)c3cnc4sccc4c3O)CC2)c(=O)n2nc(C3=CCOCC3)nc2n1CC(=O)Nc1ccc(C(F)(F)F)cc1Cl attribute_measured=IC50 recorded_result="< 100 nM"
compound=CCCC(=O)NCC(=O)N1CCN(c2c(CC)n(CC(=O)Nc3ccc(C(F)(F)F)cc3Cl)c3nc(C4=CCOCC4)nn3c2=O)CC1 attribute_measured=IC50 recorded_result="< 100 nM"
compound=CCc1c(N2CCN(C(=O)c3cc4ccnn4cn3)CC2)c(=O)n2nc(C3=CCOCC3)nc2n1CC(=O)Nc1ccc(C(F)(F)F)cc1Cl attribute_measured=IC50 recorded_result="100 to 1000 nM"
compound=CCc1c(N2CCN(C(=O)c3nnccc3O)CC2)c(=O)n2nc(C3=CCOCC3)nc2n1CC(=O)Nc1ccc(C(F)(F)F)cc1Cl attribute_measured=IC50 recorded_result="< 100 nM"

====

# maps each entry to its IC50
Biological target: WRN [UniPro: Q14191 (WRN_HUMAN), N500-C946] (Homo sapiens (Human))
Sequence (Q14191 500-946): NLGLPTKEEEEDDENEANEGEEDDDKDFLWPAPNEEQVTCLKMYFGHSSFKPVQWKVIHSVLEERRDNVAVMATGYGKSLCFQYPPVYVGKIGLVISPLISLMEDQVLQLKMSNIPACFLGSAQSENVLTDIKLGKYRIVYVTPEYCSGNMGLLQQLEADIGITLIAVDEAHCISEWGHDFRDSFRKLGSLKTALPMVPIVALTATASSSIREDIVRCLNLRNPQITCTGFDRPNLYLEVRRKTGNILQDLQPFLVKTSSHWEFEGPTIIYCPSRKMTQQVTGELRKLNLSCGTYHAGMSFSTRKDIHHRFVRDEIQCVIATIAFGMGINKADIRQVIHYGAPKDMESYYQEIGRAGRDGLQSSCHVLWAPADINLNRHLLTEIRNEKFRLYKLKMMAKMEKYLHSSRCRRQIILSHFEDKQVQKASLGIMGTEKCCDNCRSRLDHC
Assay: WRN ATPase assay (ADP-Glo)
Format: biochemical
Conditions: WRN enzymatic activity assay
attribute-measured: IC50

compound="CCc1c(N2CCN(C(=O)CNC(=O)c3c(F)cccc3Cl)CC2)c(=O)n2nc(C3=CCOCC3)nc2n1CC(=O)Nc1ccc(C(F)(F)F)cc1Cl [Example 319]" recorded_result="< 100 nM"
compound="CCc1c(N2CCN(C(=O)CNC(=O)c3cc(OC)ccc3F)CC2)c(=O)n2nc(C3=CCOCC3)nc2n1CC(=O)Nc1ccc(C(F)(F)F)cc1Cl [Example 378]" recorded_result="< 100 nM"
compound="CCc1c(N2CCN(C(=O)CNC(=O)c3ccccc3F)CC2)c(=O)n2nc(C3=CCOCC3)nc2n1CC(=O)Nc1ccc(C(F)(F)F)cc1Cl [Example 97]" recorded_result="< 100 nM"
compound="CCc1c(N2CCN(C(=O)c3cc4cnccc4[nH]3)CC2)c(=O)n2nc(C3=CCOCC3)nc2n1CC(=O)Nc1ccc(C(F)(F)F)cc1Cl [Example 313]" recorded_result="100 to 1000 nM"
compound="CCc1c(N2CCN(C(=O)C(=O)Nc3nccs3)CC2)c(=O)n2nc(N3CCOCC3)nc2n1CC(=O)Nc1ccc(C(F)(F)F)cc1F [Example 260]" recorded_result="< 100 nM"
compound="CCc1c(N2CCN(C(=O)c3ncnc4[nH]ccc34)CC2)c(=O)n2nc(C3=CCOCC3)nc2n1CC(=O)Nc1ccc(Cl)cc1C(F)(F)F [Example 69]" recorded_result="100 to 1000 nM"

====

Molecular target: WRN [UniPro: Q14191 (WRN_HUMAN), N500-C946] (Homo sapiens (Human))
Experiment: WRN unwinding assay (FORKF DNA, fluorescence)
Assay type: biochemical
Conditions: Table 14
attribute-measured: IC50

compound=CCc1c(N2CCN(C(=O)c3[nH]cnc3F)CC2)c(=O)n2nc(C3=CCOCC3)nc2n1CC(=O)Nc1ccc(C(F)(F)F)cc1Cl attribute_measured=IC50 recorded_result="100 to 1000 nM"
compound=CCc1c(N2CCN(C(=O)CNC(=O)c3ccc(F)c(NC)c3)CC2)c(=O)n2nc(N3CCOCC3)nc2n1CC(=O)Nc1ccc(C(F)(F)F)cc1F attribute_measured=IC50 recorded_result="< 100 nM"
compound=CCc1c(N2CCN(C(=O)CNC(=O)Nc3cc(F)cc(F)c3)CC2)c(=O)n2nc(C3=CCOCC3)nc2n1CC(=O)Nc1ccc(C(F)(F)F)cc1Cl attribute_measured=IC50 recorded_result="< 100 nM"

====

# maps each entry to its pIC50
Biological target: WRN [UniPro: Q14191 (WRN_HUMAN), N500-C946] (Homo sapiens (Human))
Assay: WRN ATPase assay (ADP-Glo)
Assay type: biochemical
Conditions: WRN enzymatic activity assay
pIC50: −log10 of the molar value.
attribute-measured: pIC50

compound=CCc1c(N2CCN(C(=O)c3n[nH]c(=O)cc3O)CC2)c(=O)n2nc(C3=CCOCC3)nc2n1CC(=O)Nc1ccc(C(F)(F)F)cc1Cl attribute_measured=pIC50 recorded_result="> 7.00"
compound=CCc1c(N2CCN(C(=O)c3cnn4cccc4c3O)CC2)c(=O)n2nc(C3=CCOCC3)nc2n1CC(=O)Nc1ccc(C(F)(F)F)cc1F attribute_measured=pIC50 recorded_result="> 7.00"
compound=CCc1c(N2CCN(C(=O)C(=O)Nc3ccno3)CC2)c(=O)n2nc(C3=CCOCC3)nc2n1CC(=O)Nc1ccc(C(F)(F)F)cc1F attribute_measured=pIC50 recorded_result="> 7.00"

src = patent US20260015358A1
